- Experimental Protocol: Oral bioavailability in Sprague-Dawley rat at 1 mg/kg
- Type: ADME, organism-based
- Recorded Conditions: in vivo
bioavailability listing for selected molecules.
Enter your answer as a number in %; do not include the unit.

Take a look at these entries with their results.
INSERT INTO results (line_notation, readout_units, value_reported) VALUES
  ('CNC(=O)c1ncn2c1COc1c(CCN3CCN(c4cccc5nc(C)ccc45)CC3)cccc1-2', '%', 104),
  ('Cc1ccc2c(N3CCN(CCc4cccc5c4OCc4c(C(N)=O)ncn4-5)CC3)cccc2n1', '%', 45),
  ('Cc1ccc2c(N3CCN(CCc4cccc5c4OCc4nnc(C)n4-5)CC3)cccc2n1', '%', 51);

// bioavailability lookup, key: CC(=O)c1ncn2c1COc1c(CCN3CCN(c4cccc5nc(C)ccc45)CC3)cccc1-2
43

// bioavailability lookup, key: Cc1ccc2c(N3CCN(CCc4cccc5c4OCc4c(C#N)ncn4-5)CC3)cccc2n1
48

// bioavailability lookup, key: Cc1ccc2c(N3CCN(CCc4cccc5c4OCc4c(C(=O)N6CCCC6)ncn4-5)CC3)cccc2n1
43

// bioavailability lookup, key: Cc1ccc2c(N3CCN(CCc4cccc5c4OCc4c(C(=O)N(C)C)ncn4-5)CC3)cccc2n1
50

// bioavailability lookup, key: Cc1ccc2c(N3CCN(CCc4cccc5c4OCc4c(C(=O)N6CCOCC6)ncn4-5)CC3)cccc2n1
65

====

- Experimental Protocol: Clearance in Sprague-Dawley rat blood at 0.5 mg/kg, iv and 1 mg/kg, po
- Format: ADME, organism-based
- Recorded Conditions: whole blood
clearance listing for selected molecules.
Enter your answer as a number in mL/min/kg; do not include the unit.

Take a look at these entries with their results.
INSERT INTO measurements (line_notation, value_reported) VALUES
  ('Cc1ccc2c(N3CCN(CCc4cccc5c4OCc4nnc(C)n4-5)CC3)cccc2n1', 12),
  ('CNC(=O)c1ncn2c1COc1c(CCN3CCN(c4cccc5nc(C)ccc45)CC3)cccc1-2', 8);

// clearance lookup, key: Cc1ccc2c(N3CCN(CCc4cccc5c4OCc4c(C#N)ncn4-5)CC3)cccc2n1
10

====

Vd listing for selected compounds.
- Experimental Protocol: Volume of distribution at steady state in Sprague-Dawley rat at 0.5 mg/kg, iv and 1 mg/kg, po
- Assay type: ADME, organism-based
- Recorded Conditions: in vivo, read-out: Vdss
Answer with the value and then the unit.

INSERT INTO assay_data (line_notation, measured_attribute, value_reported) VALUES
  ('Cc1ccc2c(N3CCN(CCc4cccc5c4OCc4nnc(C)n4-5)CC3)cccc2n1', 'Vd', '1.6 L/kg'),
  ('Cc1ccc2c(N3CCN(CCc4cccc5c4OCc4c(C(=O)N6CCOCC6)ncn4-5)CC3)cccc2n1', 'Vd', '5.5 L/kg'),
  ('CNC(=O)c1ncn2c1COc1c(CCN3CCN(c4cccc5nc(C)ccc45)CC3)cccc1-2', 'Vd', '3.8 L/kg'),
  ('Cc1ccc2c(N3CCN(CCc4cccc5c4OCc4c(C(=O)N(C)C)ncn4-5)CC3)cccc2n1', 'Vd', '3.5 L/kg');

// Vd lookup, key: CC(=O)c1ncn2c1COc1c(CCN3CCN(c4cccc5nc(C)ccc45)CC3)cccc1-2
7.1 L/kg

====

- Experimental Protocol: Ratio of drug level in brain to blood in Sprague-Dawley rat at 0.5 mg/kg, iv and 1 mg/kg, po after 1 hr
- Assay type: ADME, organism-based
- Recorded Conditions: brain/whole blood, read-out: BBR
Kp at 1 h listing for selected molecules.
// response body must contain only the number

Take a look at these entries with their results.
INSERT INTO measurements (line_notation, measured_attribute, value_reported) VALUES
  ('Cc1ccc2c(N3CCN(CCc4cccc5c4OCc4c(C(=O)N(C)C)ncn4-5)CC3)cccc2n1', 'Kp at 1 h', 1.8),
  ('Cc1ccc2c(N3CCN(CCc4cccc5c4OCc4c(C(=O)N6CCOCC6)ncn4-5)CC3)cccc2n1', 'Kp at 1 h', 1.7),
  ('Cc1ccc2c(N3CCN(CCc4cccc5c4OCc4c(C#N)ncn4-5)CC3)cccc2n1', 'Kp at 1 h', 1.6),
  ('Cc1ccc2c(N3CCN(CCc4cccc5c4OCc4nnc(C)n4-5)CC3)cccc2n1', 'Kp at 1 h', 0.5),
  ('Cc1ccc2c(N3CCN(CCc4cccc5c4OCc4c(C(=O)N6CCCC6)ncn4-5)CC3)cccc2n1', 'Kp at 1 h', 3.2);

// Kp at 1 h lookup, key: CC(=O)c1ncn2c1COc1c(CCN3CCN(c4cccc5nc(C)ccc45)CC3)cccc1-2
2.7

// Kp at 1 h lookup, key: Cc1ccc2c(N3CCN(CCc4cccc5c4OCc4c(C(N)=O)ncn4-5)CC3)cccc2n1
1.1

// Kp at 1 h lookup, key: CNC(=O)c1ncn2c1COc1c(CCN3CCN(c4cccc5nc(C)ccc45)CC3)cccc1-2
2.4

====

clearance listing for selected compounds.
- Experimental Protocol: Clearance in Sprague-Dawley rat blood at 0.5 mg/kg, iv and 1 mg/kg, po
- Type: ADME, organism-based
- Recorded Conditions: whole blood
Enter your answer as a number in mL/min/kg; do not include the unit.

Take a look at these entries with their results.
INSERT INTO results (line_notation, readout_units, value_reported) VALUES
  ('Cc1ccc2c(N3CCN(CCc4cccc5c4OCc4c(C(=O)N6CCOCC6)ncn4-5)CC3)cccc2n1', 'mL/min/kg', 12),
  ('CC(=O)c1ncn2c1COc1c(CCN3CCN(c4cccc5nc(C)ccc45)CC3)cccc1-2', 'mL/min/kg', 10),
  ('Cc1ccc2c(N3CCN(CCc4cccc5c4OCc4c(C(=O)N(C)C)ncn4-5)CC3)cccc2n1', 'mL/min/kg', 29),
  ('Cc1ccc2c(N3CCN(CCc4cccc5c4OCc4c(C(N)=O)ncn4-5)CC3)cccc2n1', 'mL/min/kg', 10);

Consider now this further compound.
// clearance lookup, key: Cc1ccc2c(N3CCN(CCc4cccc5c4OCc4c(C(=O)N6CCCC6)ncn4-5)CC3)cccc2n1
20

====

- Experimental Protocol: Volume of distribution at steady state in Sprague-Dawley rat at 0.5 mg/kg, iv and 1 mg/kg, po
- Assay type: ADME, organism-based
- Recorded Conditions: in vivo, read-out: Vdss
Vd listing for selected compounds.
Enter your answer as a number in L/kg; do not include the unit.

INSERT INTO measurements (line_notation, readout_units, value_reported) VALUES
  ('Cc1ccc2c(N3CCN(CCc4cccc5c4OCc4c(C(=O)N6CCCC6)ncn4-5)CC3)cccc2n1', 'L/kg', 5);

// Vd lookup, key: Cc1ccc2c(N3CCN(CCc4cccc5c4OCc4c(C(N)=O)ncn4-5)CC3)cccc2n1
2.9

// Vd lookup, key: Cc1ccc2c(N3CCN(CCc4cccc5c4OCc4c(C#N)ncn4-5)CC3)cccc2n1
3.9

====

- Experimental Protocol: Half life in Sprague-Dawley rat at 0.5 mg/kg, iv and 1 mg/kg, po
- Assay type: ADME, organism-based
- Recorded Conditions: in vivo
Lab note - cut at 5 h for half-life: Fulfilled if strictly below, Not fulfilled if not.

Look over these answered cases.
INSERT INTO measurements (line_notation, class_assignment) VALUES
  ('CNC(=O)c1ncn2c1COc1c(CCN3CCN(c4cccc5nc(C)ccc45)CC3)cccc1-2', 'Not fulfilled'),
  ('CC(=O)c1ncn2c1COc1c(CCN3CCN(c4cccc5nc(C)ccc45)CC3)cccc1-2', 'Not fulfilled'),
  ('Cc1ccc2c(N3CCN(CCc4cccc5c4OCc4nnc(C)n4-5)CC3)cccc2n1', 'Fulfilled');

Is half-life strictly under 5 h for the entry Cc1ccc2c(N3CCN(CCc4cccc5c4OCc4c(C(=O)N6CCOCC6)ncn4-5)CC3)cccc2n1 ?
Not fulfilled

Is half-life strictly under 5 h for the entry Cc1ccc2c(N3CCN(CCc4cccc5c4OCc4c(C(=O)N6CCCC6)ncn4-5)CC3)cccc2n1 ?
Fulfilled

Is half-life strictly under 5 h for the entry Cc1ccc2c(N3CCN(CCc4cccc5c4OCc4c(C(=O)N(C)C)ncn4-5)CC3)cccc2n1 ?
Fulfilled

Is half-life strictly under 5 h for the entry Cc1ccc2c(N3CCN(CCc4cccc5c4OCc4c(C(N)=O)ncn4-5)CC3)cccc2n1 ?
Fulfilled

Cited source: ChEMBL document CHEMBL1240442
